Exercise: for every item that follows, state its recorded GLC.
Organism: Rattus norvegicus
Experiment: Open TG-GATES - Regimen: Daily Repeat
Type: toxicity, organism-based, Sprague-Dawley
Parameters: regimen Daily Repeat, gender Male, age 6 weeks
Details: in vivo, po, 1000 mg/kg, […], tissue Plasma, route gavage, dose level High, time 14 day
Field format: number, assumed mg/dL, no unit text.

Asked: Need GLC, item CCCCNC(=O)NS(=O)(=O)c1ccc(C)cc1 [TOLBUTAMIDE]
Given back: 192.6

Asked: Now consider CC(S)C(=O)NCC(=O)O (centres undefined) [TIOPRONIN] and answer again.
Given back: 182.6

Asked: Consider next the compound CC(=O)[C@@]1(O)CC[C@H]2[C@@H]3C=C(Cl)C4=CC(=O)CC[C@]4(C)[C@H]3CC[C@@]21C [CHLORMADINONE] in the same way.
Given back: 195

Asked: O=C(O)c1ccccc1Nc1ccccc1 [FENAMIC ACID] ?
Given back: 156.7
